Measured MIC, listed per entry for reference.
system: Anaerococcus prevotii; assay: Antimicrobial activity against Anaerococcus prevotii isolated from intra-abdominal infection and pelvic inflammatory disease patients after 48 hrs by agar dilution method; assay type: functional
Kindly provide the numeric value in µg/mL only, without the unit symbol.

Value of MIC reported for the molecule C[C@@H](O)[C@H]1C(=O)N2C(C(=O)O)=C(S[C@@H]3CN[C@H](CNS(N)(=O)=O)C3)[C@H](C)[C@H]12 [DORIPENEM] is 0.03

Value of MIC reported for the molecule CCC[C@@H]1C[C@@H](C(=O)N[C@@H]([C@H]2O[C@H](SC)[C@H](O)[C@@H](O)[C@H]2O)[C@H](C)Cl)N(C)C1 [CLINDAMYCIN] is 0.125

We next turn to a different molecule, shown below.
Value of MIC reported for the molecule Cc1ncc([N+](=O)[O-])n1CCO [METRONIDAZOLE] is 0.25
